- Test system: LTB4 biosynthesis in human whole blood
- protocol_description: Inhibition of calcium ionophore A23187-induced LTB4 biosynthesis in human whole blood
- Type: cell-based
- experimental_context: 0.5 h; human heparinized whole blood, A23187 50 μM, 30 minutes at 37° C., LTB4 by radioimmunoassay
- Description: The assay using human heparinized whole blood was incubated for 30 minutes at 37° C. after adding 50 μM of ionophore A23187. The plasma layer was obtained by centrifugation and deproteinized by the addition of four volumes of methanol. The methanol extract was analyzed for LTB4 using a commercially available radioimmunoassay.
measured_quantity: pIC50
FYI, pIC50 means -log10 of a concentration in mol per litre.

Challenge: Which pIC50 reading was recorded for the compound CC(C)(C)Sc1c(CC(C)(C)C(=O)O)n(Cc2ccc(Cl)cc2)c2ccc(OCc3cscn3)cc12 [Example 9] ?
Response given: 7.40

Challenge: So what does the record say about pIC50 for CC(C)(C)Sc1c(CC(C)(C)C(=O)O)n(Cc2ccc(Cl)cc2)c2ccc(OCc3cccc(Cl)n3)cc12 [Example 8] ?
Response given: 6.96

Challenge: Consider the compound CC(C)(C)Sc1c(CC(C)(C)C(=O)O)n(Cc2ccc(Cl)cc2)c2ccc(Oc3ccccn3)cc12 [Example 5] and give its measured pIC50.
Response given: 5.61

====

Give measured IC50 for each item. Keep answers brief.
- System: LTB4 biosynthesis in human PMNL
- protocol_description: Inhibition of calcium ionophore A23187-induced LTB4 biosynthesis in human polymorphonuclear leukocytes (PMNL)
- Assay type: cell-based
- experimental_context: human PMNL (5×10^6 cells/250 μL), 15 min preincubation at 37° C., A23187 8.3 μM, 10 min, LTB4 by HPLC
Write down the numeric answer in nM and omit the unit.

Challenge: Endpoint output: IC50 of Cc1cc(C)nc(COc2ccc3c(c2)c(SC(C)(C)C)c(CC(C)(C)C(=O)O)n3Cc2ccc(Cl)cc2)n1 [Example 7] . Value?
Response given: 30

Challenge: Given the compound CC(C)(C)Sc1c(CC(C)(C)C(=O)O)n(Cc2ccc(Cl)cc2)c2ccc(OCc3ccc4ccccc4c3)cc12 [Example 4] , what is its reported IC50?
Response given: 12

Challenge: I am curious: what IC50 value has been reported for CC(C)(C)Sc1c(CC(C)(C)C(=O)O)n(Cc2ccc(Cl)cc2)c2ccc(OCc3cccc(Cl)n3)cc12 [Example 8] ?
Response given: 17

Challenge: Give the measured IC50 of CC(C)(C)Sc1c(CC(C)(C)C(=O)O)n(Cc2ccc(Cl)cc2)c2ccc(Oc3ccccn3)cc12 [Example 5] .
Response given: 15

Challenge: Which IC50 reading was recorded for the compound CC(C)(C)Sc1c(CC(C)(C)C(=O)O)n(Cc2ccc(Cl)cc2)c2ccc(OCc3cccnc3)cc12 [Example 1] ?
Response given: 17

====

- Test system: LTB4 biosynthesis in human PMNL
- protocol_description: Inhibition of calcium ionophore A23187-induced LTB4 biosynthesis in human polymorphonuclear leukocytes (PMNL)
- Type: cell-based
- experimental_context: human PMNL (5×10^6 cells/250 μL), 15 min preincubation at 37° C., A23187 8.3 μM, 10 min, LTB4 by HPLC
measured_quantity: pIC50
# pIC50: negative log10 of molar concentration; output just the value

Challenge: Return reported pIC50; argument: CC(C)(C)Sc1c(CC(C)(C)C(=O)O)n(Cc2ccc(Cl)cc2)c2ccc(OCc3cscn3)cc12
Response given: 8.36

Challenge: Find the recorded pIC50 belonging to CC(C)(C)Sc1c(CC(C)(C)C(=O)O)n(Cc2ccc(Cl)cc2)c2ccc(OCc3cccs3)cc12 and report it.
Response given: 8.15
